Provenance of the data: PubChem BioAssay (EPA / NIEHS)

# TESTED ON: Bile acid receptor (Homo sapiens)
# RUN DESCRIPTION: ATG_IR1_CIS: Attagene CIS-FACTORIAL HepG2 Assay for human Nuclear Receptor Subfamily 1 Group H Member 4 (NR1H4), IR1 submotif (AID 2282946)
# EXPERIMENTAL SETUP: IR1 reporter transcription, actives raise or lower the signal
Active and inactive are the calls of the source. How the source made its calls: active means hit-call score of the fitted dose curve at least 0.9, where 1 is the maximum; inactive means score below 0.9.
MEASURED ATTRIBUTE: AC50

Some solved entries appear below for comparison.
>>> print(df.to_string())
                                   molecule           reading
0       CC(C)(C)c1ccc(CCOc2ncnc3ccccc23)cc1          inactive
1  CC(C)(C)c1cc([N+](=O)[O-])cc(C(C)(C)C)c1O          inactive
2   O=S(=O)(c1ccc(Cl)cc1)c1cc(Cl)c(Cl)cc1Cl  19.3 µM (active)
3                    O=C/C(Cl)=C(/Cl)C(=O)O    46 µM (active)
4                   Clc1ccc(C(Cl)(Cl)Cl)cn1          inactive

Consider the following items and state reported AC50 for each.
1. Cc1cc(Cl)ccc1O
2. Cc1cccc(C)c1NC(=O)CN1CCCC1=O
3. O=S1(=O)OC(c2cc(Br)c(O)c(Br)c2)(c2cc(Br)c(O)c(Br)c2)c2ccccc21
4. CNC(=O)N(C)c1nc2ccccc2s1

OUT:
1: inactive; 2: inactive; 3: inactive; 4: inactive
